I'd appreciate it if you could supply inhibition values for the items below.
molecular target: Non-receptor tyrosine-protein kinase TYK2 (Homo sapiens); conditions: at 1 µM;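 further: values are mean percent inhibition of TYK2 kinase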
One number for each entry, in %.

Cc1ccc2c(-c3ccnc(Nc4ccccc4)n3)c(-c3ccc(F)cc3)nn2n1 | -1.64
COc1ccc(-c2nn3ncccc3c2-c2ccnc(Nc3ccc4c(c3)OCCO4)n2)cc1 | -1.85

For each entry beneath this line, provide reported inhibition.
1. Fc1ccc(-c2nn3ccccc3c2-c2ccncc2)cc1
2. CCCN(CCS(C)(=O)=O)Cc1ccc(-c2ccc3ncnc(Nc4ccc(OCc5cccc(F)c5)c(Cl)c4)c3c2)o1
3. O=C(O[C@H]1CN[C@H](C#Cc2cc3ncnc(Nc4ccc(Cc5ccccc5)cc4)c3s2)C1)N1CCOCC1
4. CCN1CCC(CC(=O)Nc2n[nH]c3nnc(-c4cccc(F)c4F)cc23)CC1
5. CS(=O)(=O)CCNCc1ccc(-c2ccc3ncnc(Nc4ccc(OCc5ccccc5)c(C(F)(F)F)c4)c3c2)o1
6. Cc1cccc2c1NC(=O)/C2=N\Nc1ccc(S(N)(=O)=O)cc1
7. O=S(=O)(CCNCc1ccc(-c2ccc3ncnc(Nc4ccc(OCc5cccc(F)c5)c(Cl)c4)c3c2)o1)c1ccccc1

1. -0.08
2. -0.78
3. -3.27
4. 2.26
5. -3.76
6. -0.5
7. -2.79

Just for reference, ChEMBL document CHEMBL1961873 is where these values come from.
